Experimental system: hNAMPT protein (Homo sapiens (Human), UniProt P43490)
Sequence (P43490 whole entry): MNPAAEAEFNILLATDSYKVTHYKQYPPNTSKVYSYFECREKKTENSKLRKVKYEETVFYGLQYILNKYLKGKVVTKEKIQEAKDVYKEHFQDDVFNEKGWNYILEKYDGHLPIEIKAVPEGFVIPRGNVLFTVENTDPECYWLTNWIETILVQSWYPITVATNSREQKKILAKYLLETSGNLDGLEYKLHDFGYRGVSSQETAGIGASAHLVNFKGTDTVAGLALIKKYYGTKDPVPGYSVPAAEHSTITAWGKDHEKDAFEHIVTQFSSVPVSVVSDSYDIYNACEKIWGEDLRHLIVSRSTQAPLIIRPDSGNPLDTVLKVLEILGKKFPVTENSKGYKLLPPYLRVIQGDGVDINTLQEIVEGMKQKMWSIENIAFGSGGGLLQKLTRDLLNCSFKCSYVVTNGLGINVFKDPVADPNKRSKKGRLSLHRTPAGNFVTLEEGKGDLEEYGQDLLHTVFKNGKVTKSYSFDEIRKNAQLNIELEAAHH
Test method notes: NAMPT enzyme assay (TR-FRET/HTRF, BodiPY ligand, anti 6His-Tb)
Type: binding
Condition info: NAMPT IC50 range class; read-out: IC50
Excerpt: As discussed above, the invention provides compounds that are useful as inhibitors of the enzyme NAMPT. The NAMPT inhibition of a compound of the invention can be measured using a variety of methods known in the art. […] The TR-FRET signal can be measured using a high throughput microplate reader (e.g., Pherastar). […] The percent inhibition value at a single concentration of compound of the invention can be calculated relative to a control treated sample. […]
pIC50: −log10 of the molar value.
# pIC50 annotations

>  <Compound>
N#CC1CCN(c2nc3cc(C(=O)NCCCn4ccnc4)ccc3nc2-c2ccccc2)C1 (stereo not drawn)

>  <Experimental system>
hNAMPT protein (Homo sapiens (Human), UniProt P43490)

>  <pIC50>
5.00 to 5.70

$$$$
>  <Compound>
O=C(NCCCc1ncc[nH]1)c1ccc2nc(N3CCC(O)CC3)c(-c3ccc(Cl)cc3)nc2c1

>  <Experimental system>
hNAMPT protein (Homo sapiens (Human), UniProt P43490)

>  <pIC50>
> 7.00

$$$$
>  <Compound>
O=C(NCCCn1ccnc1)c1ccc2nc(-c3ccccc3)c(NCc3ccccc3)nc2c1

>  <Experimental system>
hNAMPT protein (Homo sapiens (Human), UniProt P43490)

>  <pIC50>
5.00 to 5.70

$$$$
>  <Compound>
Cn1ccc2cc(-c3nc4cc(C(=O)NCCCc5ncc[nH]5)ccc4nc3-c3ccc(F)cc3)ccc21

>  <Experimental system>
hNAMPT protein (Homo sapiens (Human), UniProt P43490)

>  <pIC50>
6.30 to 7.00

$$$$
>  <Compound>
COc1cccc(-c2nc3cc(C(=O)NCCCc4ncc[nH]4)ccc3nc2N2CCCCC2)c1

>  <Experimental system>
hNAMPT protein (Homo sapiens (Human), UniProt P43490)

>  <pIC50>
> 7.00

$$$$
>  <Compound>
Cc1ccc(F)cc1-c1nc2cc(C(=O)NCCCc3ncc[nH]3)ccc2nc1-c1ccc(F)cc1

>  <Experimental system>
hNAMPT protein (Homo sapiens (Human), UniProt P43490)

>  <pIC50>
6.30 to 7.00

$$$$
>  <Compound>
O=C(NCCCc1ncc[nH]1)c1ccc2nc(OCC3CCCCO3)c(-c3ccc(F)cc3)nc2c1 (stereo not drawn)

>  <Experimental system>
hNAMPT protein (Homo sapiens (Human), UniProt P43490)

>  <pIC50>
> 7.00

$$$$
>  <Compound>
COc1cccc(-c2nc3cc(C(=O)NCCCc4ncc[nH]4)ccc3nc2N2CCC(O)CC2)c1

>  <Experimental system>
hNAMPT protein (Homo sapiens (Human), UniProt P43490)

>  <pIC50>
> 7.00

$$$$
>  <Compound>
O=C(NCCCc1ncc[nH]1)c1ccc2nc(OCc3ccoc3)c(-c3ccc(F)cc3)nc2c1

>  <Experimental system>
hNAMPT protein (Homo sapiens (Human), UniProt P43490)

>  <pIC50>
> 7.00

$$$$
>  <Compound>
CS(=O)(=O)C1CCN(c2nc3cc(C(=O)NCCCn4ccnc4)ccc3nc2-c2ccccc2)C1 (stereo not drawn)

>  <Experimental system>
hNAMPT protein (Homo sapiens (Human), UniProt P43490)

>  <pIC50>
5.00 to 5.70

$$$$
>  <Compound>
O=C(NCc1ccccn1)c1ccc2nc(-c3ccccc3)c(-c3ccccc3)nc2c1

>  <Experimental system>
hNAMPT protein (Homo sapiens (Human), UniProt P43490)

>  <pIC50>
5.00 to 5.70

$$$$
>  <Compound>
O=C(NCc1ccc2[nH]ncc2c1)c1ccc2nc(N3CCCCC3)c(-c3ccc(F)cc3)nc2c1

>  <Experimental system>
hNAMPT protein (Homo sapiens (Human), UniProt P43490)

>  <pIC50>
6.30 to 7.00

$$$$
>  <Compound>
COc1cc(-c2nc3cc(C(=O)NCCCc4ncc[nH]4)ccc3nc2OC(C)C)c(F)cn1

>  <Experimental system>
hNAMPT protein (Homo sapiens (Human), UniProt P43490)

>  <pIC50>
6.30 to 7.00

$$$$
>  <Compound>
O=C(NCCCc1ncc[nH]1)c1ccc2nc(N3CCC(O)CC3)c(-c3ccc(F)cc3)nc2c1

>  <Experimental system>
hNAMPT protein (Homo sapiens (Human), UniProt P43490)

>  <pIC50>
> 7.00

$$$$
>  <Compound>
Cn1ccc2c1CN(C(=O)c1ccc3nc(-c4ccc(F)cc4)c(-c4ccc(F)cc4)nc3c1)CC2

>  <Experimental system>
hNAMPT protein (Homo sapiens (Human), UniProt P43490)

>  <pIC50>
5.00 to 5.70

$$$$

----------
# pIC50 annotations
Experimental system: hNAMPT protein (Homo sapiens (Human))
Test method notes: NAMPT enzyme assay (TR-FRET/HTRF, BodiPY ligand, anti 6His-Tb)
Type: binding
Condition info: NAMPT IC50 range class; read-out: IC50
Source text: As discussed above, the invention provides compounds that are useful as inhibitors of the enzyme NAMPT. The NAMPT inhibition of a compound of the invention can be measured using a variety of methods known in the art. […] The TR-FRET signal can be measured using a high throughput microplate reader (e.g., Pherastar). […] The percent inhibition value at a single concentration of compound of the invention can be calculated relative to a control treated sample. […]
pIC50: −log10 of the molar value.

>  <Compound>
O=C(NCCCc1cn[nH]c1)c1ccc2nc(N3CCCCC3)c(-c3ccc(F)cc3)nc2c1 [Compound I-94]

>  <Experimental system>
hNAMPT protein (Homo sapiens (Human))

>  <pIC50>
> 7.00

$$$$
>  <Compound>
O=C(NCCCc1ncc[nH]1)c1ccc2nc(OC3CCOCC3)c(-c3ccc(Cl)cc3)nc2c1 [Compound I-111]

>  <Experimental system>
hNAMPT protein (Homo sapiens (Human))

>  <pIC50>
> 7.00

$$$$
>  <Compound>
O=C(NCCc1ncc[nH]1)c1ccc2nc(Cl)c(-c3ccc(F)cc3)nc2c1 [Compound I-102]

>  <Experimental system>
hNAMPT protein (Homo sapiens (Human))

>  <pIC50>
6.00 to 6.30

$$$$
>  <Compound>
Cn1cccc1-c1nc2cc(C(=O)NCCCn3ccnc3)ccc2nc1-c1ccccc1 [Compound I-194]

>  <Experimental system>
hNAMPT protein (Homo sapiens (Human))

>  <pIC50>
5.00 to 5.70

$$$$
>  <Compound>
O=C(NCCCc1ncc[nH]1)c1ccc2nc(-c3ccc(F)cc3)c(-c3ccc4c(c3)OCCO4)nc2c1 [Compound I-320]

>  <Experimental system>
hNAMPT protein (Homo sapiens (Human))

>  <pIC50>
6.00 to 6.30

$$$$
>  <Compound>
O=C(NCCCc1ccncc1)c1ccc2nc(-c3ccc(F)cc3)c(-c3ccc(F)cc3)nc2c1 [Compound I-229]

>  <Experimental system>
hNAMPT protein (Homo sapiens (Human))

>  <pIC50>
6.30 to 7.00

$$$$
>  <Compound>
O=C(NCCCn1ccnc1)c1ccc2nc(N3CCC4(CC3)COC4)c(-c3ccccc3)nc2c1 [Compound I-30]

>  <Experimental system>
hNAMPT protein (Homo sapiens (Human))

>  <pIC50>
6.30 to 7.00

$$$$
>  <Compound>
O=C(NCCCc1ncc[nH]1)c1ccc2nc(C3=CCC(O)CC3)c(-c3cccs3)nc2c1 (centres unmarked) [Compound I-202]

>  <Experimental system>
hNAMPT protein (Homo sapiens (Human))

>  <pIC50>
> 7.00

$$$$

----------
Experimental system: hNAMPT protein (Homo sapiens (Human))
Test method notes: NAMPT enzyme assay (TR-FRET/HTRF, BodiPY ligand, anti 6His-Tb)
Assay type: binding
Condition info: compound concentration 1 μM; read-out: Percent Inhibition
Use T when the recorded inhibition at 1 µM is no lower than 60%; use F when it is lower.

>  <Record smiles>
CC(=O)Nc1ccc(-c2nc3cc(C(=O)NCCCn4ccnc4)ccc3nc2-c2ccccc2)cc1

>  <Discrete label>
F

$$$$
>  <Record smiles>
Cn1cc(-c2nc3ccc(C(=O)NCCCn4ccnc4)cc3nc2-c2ccccc2)cn1

>  <Discrete label>
F

$$$$
>  <Record smiles>
CS(=O)(=O)Nc1cccc(-c2nc3cc(C(=O)NCCCn4ccnc4)ccc3nc2-c2ccccc2)c1

>  <Discrete label>
T

$$$$
>  <Record smiles>
COc1cccc(-c2nc3cc(C(=O)NCCCc4ncc[nH]4)ccc3nc2N2CCC(O)CC2)c1

>  <Discrete label>
T

$$$$
>  <Record smiles>
O=C(NCCCn1nnnc1S)c1ccc2nc(-c3ccc(F)cc3)c(-c3ccc(F)cc3)nc2c1

>  <Discrete label>
F

$$$$
>  <Record smiles>
O=C(NCCCc1ncc[nH]1)c1ccc2nc(OC3CCOCC3)c(-c3ccc(Cl)cc3)nc2c1

>  <Discrete label>
T

$$$$
>  <Record smiles>
O=C(NCCn1cccn1)c1ccc2nc(-c3ccc(F)cc3)c(-c3ccc(F)cc3)nc2c1

>  <Discrete label>
F

$$$$
>  <Record smiles>
O=C(NCCCc1ncc[nH]1)c1ccc2nc(Cl)c(-c3ccc(F)cc3)nc2c1

>  <Discrete label>
T

$$$$
